Field: growth inhibition. Provide a value for each of the compounds that follow.
PROCEDURE TEXT: inhibition of 3D7 malaria parasite growth – strain 3D7 (AID 2306);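 also: 0% = DMSO wells and 100% = chloroquine plus artemisinin control wells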
ASSAY CONTEXT: P. falciparum 3D7 erythrocytic growth, LDH absorbance, 72 h; at 2 µM; hits give high values
Expressed in %, but write only the number.

Returns the measured growth inhibition for the input compound. Input: COc1ccc2nccc([C@@H](O)CN3CCC(NCc4nc5ccccc5s4)CC3)c2c1
93

Returns the measured growth inhibition for the input compound. Input: CS(=O)(=O)c1cccc2sc(N3CCN(C(=O)c4ccc([N+](=O)[O-])o4)CC3)nc12
84

Returns the measured growth inhibition for the input compound. Input: CCNC(=O)N1CCc2ccc(Oc3nc(NCc4ccccc4OC)ncc3C)cc2CC1
83

Returns the measured growth inhibition for the input compound. Input: CC(C)NCc1ccc(-c2ccc(-c3nc4ccc(C(F)(F)F)cc4[nH]3)s2)cc1
101

Returns the measured growth inhibition for the input compound. Input: O=C(NCc1ccc(Cl)c(Cl)c1)c1ccc(-c2nc3ccc(Cl)cc3[nH]2)cc1
96

Returns the measured growth inhibition for the input compound. Input: O=C(Nc1cccc(CN2CCCN(Cc3ccc4c(c3)OCO4)CC2)c1)c1cc2ccccc2s1
95

Returns the measured growth inhibition for the input compound. Input: O=C(NC1CCN(c2ccc(F)cc2[N+](=O)[O-])CC1)c1cccs1
90

Returns the measured growth inhibition for the input compound. Input: CO/C(=C\C=C\c1cc2cc(Cl)c(Cl)cc2[nH]1)C(=O)NCCCN1CCN(c2cccc(OCC(=O)Nc3cccc(C(=O)c4ccccc4)c3)c2)CC1
94

Returns the measured growth inhibition for the input compound. Input: CC1(C)N=C(N)N=C(N)N1CCc1ccccc1
93

Returns the measured growth inhibition for the input compound. Input: Cc1cccc2[nH]c(-c3ccc(-c4cccc(CNC5CCN(C)CC5)c4)s3)nc12
98

Returns the measured growth inhibition for the input compound. Input: NC1=NC(c2ccccc2)(c2ccccc2)C(=O)N1Cc1ccc(-c2cccnc2)cc1
99

Returns the measured growth inhibition for the input compound. Input: c1ccc2c(NCCCCCCCCNc3ccnc4ccccc34)ccnc2c1
101

Returns the measured growth inhibition for the input compound. Input: COc1ccc(-c2ccnc(-c3cccc(-c4ccccn4)n3)c2)cc1
97

Returns the measured growth inhibition for the input compound. Input: O=C(CSc1nc(-c2ccccc2Cl)ns1)Nc1cccc(Cl)c1
96

Returns the measured growth inhibition for the input compound. Input: COc1ccccc1-c1cccc2c(NC(=O)Nc3ccc4nccc(N5CCN(C)CC5)c4c3)ccnc12
94

Returns the measured growth inhibition for the input compound. Input: COc1cc2nc(N3CCC(CNC(=O)c4ccc(-c5ccccc5)cc4)CC3)nc(N)c2cc1OC
93

Returns the measured growth inhibition for the input compound. Input: COc1ccc2nccc([C@@H](O)CN3CCC(NCc4nc5c(F)cc(F)cc5[nH]4)CC3)c2c1
99

Returns the measured growth inhibition for the input compound. Input: COc1ccc(C=NNc2ccnc3cc(F)c(C)cc23)c2ccccc12
101

Returns the measured growth inhibition for the input compound. Input: CSc1sc(NC(=O)Nc2cccc(C(F)(F)F)c2)cc1C#N
99

Returns the measured growth inhibition for the input compound. Input: O=C(/C=C/c1cccc(C(F)(F)F)c1)NCCCCCN1CCC(c2c[nH]c3ccccc23)CC1
90

Returns the measured growth inhibition for the input compound. Input: NCC1CCCN1Cc1ccc(-c2ccc(-c3nc4ccc(C(F)(F)F)cc4[nH]3)cc2)cc1 (configuration not stated)
101

Returns the measured growth inhibition for the input compound. Input: COc1ccccc1CCNc1nc(C)cc(N[C@@H](CC(C)C)C(=O)Nc2ccccc2)n1
101

* * *

PROCEDURE TEXT: inhibition of 3D7 malaria parasite growth – strain 3D7 (AID 2306);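 also: 0% = DMSO wells and 100% = chloroquine plus artemisinin control wells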
ASSAY CONTEXT: P. falciparum 3D7 erythrocytic growth, LDH absorbance, 72 h; at 2 µM; hits give high values
PROPERTY: growth inhibition (%)
Expressed in %, but write only the number.

Returns the measured growth inhibition for the input compound. Input: COc1cc(OC)cc(C(=O)Nc2nc(-c3ccccn3)cs2)c1
97

Returns the measured growth inhibition for the input compound. Input: CCCCN(C(=O)c1ccccc1Cl)c1nnc(-c2ccccc2C)s1
90

Returns the measured growth inhibition for the input compound. Input: COc1cc(C2=NN(S(=O)(=O)c3c(Cl)cc(Cl)cc3Cl)CCCC2)ccc1Cl
98

Returns the measured growth inhibition for the input compound. Input: Cn1cncc1C(=O)Nc1cccc(-c2ccc(-c3nc4ccccc4[nH]3)cc2)c1
99

Returns the measured growth inhibition for the input compound. Input: Clc1ccc(Cn2nc(Br)nc2Br)c(Cl)c1
96

Returns the measured growth inhibition for the input compound. Input: CC(C)(C)c1ccc(NC(=O)c2ccc(CN3CCCN(CC4CCCCC4)CC3)cc2)cc1
99

Returns the measured growth inhibition for the input compound. Input: CC(C)CNCc1ccc(-c2cccc(CN(CCN(C)C)C(=O)NCCc3ccccc3)c2)cc1
91

Returns the measured growth inhibition for the input compound. Input: O=C(Nc1cccc(-c2cccc(-c3nc4ccc(F)cc4[nH]3)c2)c1)c1ccncc1
92

Returns the measured growth inhibition for the input compound. Input: O=C(Nc1cc(=O)[nH]c2nc(-c3ccccc3)nn12)C1CCCCC1
86

Returns the measured growth inhibition for the input compound. Input: CC(C)c1ccc(CN2CCCCC(NC(=O)c3cc(-c4cccc(F)c4)cs3)C2)cc1 (stereo not given)
94

Returns the measured growth inhibition for the input compound. Input: CC(Cl)=CCc1c(C)[nH]c2c(ccc3ccccc32)c1=O
96

Returns the measured growth inhibition for the input compound. Input: Cc1cc(-c2cccc(CNC3CCCC3)c2)ccc1S(=O)(=O)NCCN1CCCC1
81

Returns the measured growth inhibition for the input compound. Input: Cc1cc(NC(=O)c2ccco2)ccc1OC1CCN(Cc2ccc(F)cc2)C1 (stereo not given)
96

Returns the measured growth inhibition for the input compound. Input: CC(Cc1ccc(NC(=O)c2ccc(CNCc3ccccc3)cc2)cc1)N(CCc1cccc(Cl)c1)C(=O)OC(C)(C)C (stereo not given)
95

Returns the measured growth inhibition for the input compound. Input: Cc1ccc2nc(/C=C/c3cccc4cc[nH]c34)[nH]c2c1
100

* * *

PROCEDURE TEXT: antimalarial activity against Dd2 strain (AID 2302);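 also: 0% = DMSO untreated growth and 100% = chloroquine plus artemisinin killed control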
ASSAY CONTEXT: P. falciparum Dd2 in RBCs, LDH growth readout, 72 h; at 2 µM; hits give high values
Response key: 1 means growth inhibition >= 60%; -1 means growth inhibition < 60%.

Threshold query (growth inhibition >= 60%) on CC1CC(C)CN(CCCNc2ccc(C(=O)Nc3ccc(C(F)(F)F)cc3)cc2[N+](=O)[O-])C1 (centres undefined)
1

Threshold query (growth inhibition >= 60%) on O=C(Nc1ccc(CN2CCCCC2)cc1)c1ccc(COc2ccc([N+](=O)[O-])cc2)o1
-1

Threshold query (growth inhibition >= 60%) on CN(C)c1cccc2c1nc(-c1ccc3c(c1)CCO3)n2CCNCc1ccccc1
1

Threshold query (growth inhibition >= 60%) on CC(CN1CCN(C)CC1)C(=O)Nc1ccc(-c2ccc(-c3nc4ccc(C(F)(F)F)cc4[nH]3)cc2)cc1 (centres undefined)
1

Threshold query (growth inhibition >= 60%) on CCN(CCCN1CCCCC1)c1nccc(Nc2ccc(Cl)cc2)n1
1

Threshold query (growth inhibition >= 60%) on COc1ccccc1-c1sccc1C(=O)NC1(c2cc(Cl)cc(Cl)c2)CCCC1
1

Threshold query (growth inhibition >= 60%) on N#Cc1ccc(CNCCCCCCCNCc2ccc(-c3ccccc3)cc2)cc1
-1

Threshold query (growth inhibition >= 60%) on N=C(N)c1ccc(Oc2ccc(C(=N)N)cc2)cc1
1

Threshold query (growth inhibition >= 60%) on COc1ccc(CN2CCCC(OC(c3ccc(F)cc3)c3ccc(F)cc3)C2)c(O)c1 (centres undefined)
1

* * *

TARGET OR SYSTEM: L-lactate dehydrogenase (Plasmodium falciparum (isolate CDC / Honduras)) (UniProt Q27743)
Sequence (Q27743 whole entry, looked up): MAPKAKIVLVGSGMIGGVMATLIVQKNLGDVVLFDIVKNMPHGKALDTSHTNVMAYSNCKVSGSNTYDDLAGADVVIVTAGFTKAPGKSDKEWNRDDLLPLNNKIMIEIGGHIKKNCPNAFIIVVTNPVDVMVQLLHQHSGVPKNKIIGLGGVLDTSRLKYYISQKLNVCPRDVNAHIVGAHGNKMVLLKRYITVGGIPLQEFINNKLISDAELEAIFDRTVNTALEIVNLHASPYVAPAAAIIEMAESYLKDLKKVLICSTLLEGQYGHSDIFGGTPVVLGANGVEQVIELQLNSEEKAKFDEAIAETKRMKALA
PROCEDURE TEXT: PfLDH activity inhibition – cell lysate, 3D7 strain, counter-screen for P. falciparum growth inhibition project (AID 2304);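 also: 0% = vehicle and 100% = reference inhibitor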
ASSAY CONTEXT: P. falciparum 3D7 crude extract, LDH APAD/NBT absorbance; at 2 µM; hits give high values
Activity calls are given as the source filed them. The rule behind the calls is not given here.
Field: inhibition. Provide a value for each of the molecules that follow.

Returns the measured inhibition for the input molecule. Input: C=CCOC(=O)N1CCC(CNCc2cccc(-c3cccc(-c4nc5c(C)cccc5[nH]4)c3)c2)C1 (stereo not drawn)
-2% (inactive)

Returns the measured inhibition for the input molecule. Input: Clc1ccc(OCc2ccccc2)c(Cc2ccc(-c3nc4ccncc4[nH]3)o2)c1
-2% (inactive)

Returns the measured inhibition for the input molecule. Input: CC(C)(C)C(Cn1ccnc1)NCc1cn[nH]c1-c1ccc(-c2ccccc2)cc1 (stereo not drawn)
-2% (inactive)

Returns the measured inhibition for the input molecule. Input: C[C@@H]1CCC[C@H](C)N1C[C@@H](O)CNS(=O)(=O)c1cccc(C(F)(F)F)c1
-4% (inactive)

Returns the measured inhibition for the input molecule. Input: CCN(CC)C(=NCCCCCCN=C(NC(N)=NCc1ccc(Cl)cc1)N(CC)CC)NC(N)=NCc1ccc(Cl)cc1
-3% (inactive)

Returns the measured inhibition for the input molecule. Input: C/C(=C\C(=O)NC1CC1)c1ccccc1OCc1ccccc1
-1% (inactive)

Returns the measured inhibition for the input molecule. Input: O=C(Nc1ccc(N2CCCN(Cc3cccc(F)c3)CC2)cc1)c1ccccc1
-4% (inactive)

Returns the measured inhibition for the input molecule. Input: O=C(NC(=S)Nc1cc(C(F)(F)F)cc(C(F)(F)F)c1)c1ccc(Cl)cc1
0% (inactive)

Returns the measured inhibition for the input molecule. Input: Cc1cc(NCCc2cccc(F)c2)nc(/N=C(\N)Nc2cccc(C(F)(F)F)c2)n1
-1% (inactive)

Returns the measured inhibition for the input molecule. Input: Cc1cc(N[C@@H](Cc2ccccc2)C(=O)NCc2cccc(F)c2)nc(Nc2ccccc2)n1
5% (inactive)

Returns the measured inhibition for the input molecule. Input: COc1ccccc1N1CCN(c2cccc(F)c2C#N)CC1
-2% (inactive)

Returns the measured inhibition for the input molecule. Input: CC1(C)N=C(N)N=C(N)N1OCCOc1ccc(Cc2ccccc2)cc1
3% (inactive)

Returns the measured inhibition for the input molecule. Input: CCc1sc(CN(CCCNc2cc(=O)c3ccccc3[nH]2)Cc2sc(CC)c(Br)c2-c2ccsc2)c(-c2ccsc2)c1Br
0% (inactive)
